Would you kindly list T/C for each of these molecules?
test system: P388 leukemia ip, CD2F1 mice, survival T/C; assay: NCI In Vivo Anticancer Drug Screen. Data for tumor model P388 Leukemia (intraperitoneal) in CD2F1 (CDF1) mice; conditions: endpoint: median survival time; dose: 400.0 mg/kg/injection; schedule: Q01DX009 (ip); vehicle: Klucel (hydroxypropylcellulose) (HPC); higher = longer survival
Inconclusive results and toxic doses are left out.

{"molecule": "CC(C)(O)c1cccc2c(C(C)(C)O)cccc12", "T/C": "91 % of control"}

List reported T/C for each of these molecules:
1. CC(=O)Oc1c(C)c2c(O)c3c1C1=C(OCOC1=C(C)C3=O)C(C)=CC(C)(O)C(O)C(C)C(O)C1C(=O)OC(C(C)/C=C\C=C(C)C(=O)N2)C(C)C1O (stereo not given)
2. COc1ccc(C(=O)c2ccccc2)cc1
3. CCCCOP(O)(=S)OCCCC.[Ti]
4. CCCCC(CC)CCC(CC(C)C)OCCC#N (stereo not given)

result:
1: 103 % of control; 2: 98 % of control; 3: 95 % of control; 4: 90 % of control
